experiment: Therapeutic index, ratio of CC50 for human HuH7 cells expressing T7 RNA polymerase to EC50 for Middle East respiratory syndrome coronavirus infected in human HuH7 cells expressing T7 RNA polymerase; format: toxicity, cell-based; settings: read-out: Ratio CC50/EC50

>  <mol>
O=C(/C=C/c1ccccc1)N[C@@H](Cc1ccccc1)C(=O)N[C@@H](C[C@@H]1CCNC1=O)C(=O)C(=O)NCc1ccccc1

>  <selectivity ratio>
> 10

$$$$

---

Collected selectivity ratio values appear next to each entry.
assay: Therapeutic index, ratio of CC50 for human HeLa Rh cells to EC50 for Human rhinovirus 14 infected in human HeLa Rh cells; type: toxicity, cell-based; conditions: read-out: Ratio CC50/EC50

>  <mol>
O=C(/C=C/c1ccccc1)N[C@@H](CC1CCC1)C(=O)N[C@@H](C[C@@H]1CCNC1=O)C(=O)C(=O)NCc1ccccc1

>  <selectivity ratio>
> 15

$$$$
>  <mol>
O=C(/C=C/c1ccccc1)N[C@@H](Cc1ccccc1)C(=O)N[C@@H](C[C@@H]1CCNC1=O)C(=O)C(=O)NCc1ccccc1

>  <selectivity ratio>
> 15

$$$$
>  <mol>
O=C(/C=C/c1ccccc1)N[C@@H](CC1CCCCC1)C(=O)N[C@@H](C[C@@H]1CCNC1=O)C(=O)C(=O)NCc1ccccc1

>  <selectivity ratio>
> 15

$$$$

---

selectivity ratio overview
experiment: Therapeutic index, ratio of CC50 for human HeLa Rh cells to EC50 for Enterovirus D68 infected in human HeLa Rh cells; format: toxicity, cell-based; settings: read-out: Ratio CC50/EC50
measurement.kind: selectivity ratio

>  <mol>
O=C(/C=C/c1ccccc1)N[C@@H](CC1CCC1)C(=O)N[C@@H](C[C@@H]1CCNC1=O)C(=O)C(=O)NCc1ccccc1

>  <measurement.kind>
selectivity ratio

>  <value>
> 15

$$$$
>  <mol>
O=C(/C=C/c1ccccc1)N[C@@H](CC1CCCCC1)C(=O)N[C@@H](C[C@@H]1CCNC1=O)C(=O)C(=O)NCc1ccccc1

>  <measurement.kind>
selectivity ratio

>  <value>
> 15

$$$$
>  <mol>
O=C(/C=C/c1ccccc1)N[C@@H](Cc1ccccc1)C(=O)N[C@@H](C[C@@H]1CCNC1=O)C(=O)C(=O)NCc1ccccc1

>  <measurement.kind>
selectivity ratio

>  <value>
> 10

$$$$

---

test system: Human coronavirus 229E; assay: Antiviral activity against Human coronavirus 229E infected in HuH7 cells expressing T7 RNA polymerase assessed as reduction in virus-induced cytopathic effect incubated for 48 hrs by Alamar blue based assay; type: functional, organism-based; conditions: Huh-7, 48 h
EC50 under 2 µM gets True, anything at or over 2 µM gets False.

>  <mol>
O=C(/C=C/c1ccccc1)N[C@@H](CC1CC1)C(=O)N[C@@H](C[C@@H]1CCNC1=O)C(=O)C(=O)NCc1ccccc1

>  <class.name>
True

$$$$
>  <mol>
O=C(/C=C/c1ccccc1)N[C@@H](CC1CCCCC1)C(=O)N[C@@H](C[C@@H]1CCNC1=O)C(=O)C(=O)NCc1ccccc1

>  <class.name>
True

$$$$
>  <mol>
O=C(/C=C/c1ccccc1)N[C@@H](CC1CCCC1)C(=O)N[C@@H](C[C@@H]1CCNC1=O)C(=O)C(=O)NCc1ccccc1

>  <class.name>
False

$$$$
>  <mol>
CC(C)C[C@H](NC(=O)/C=C/c1ccccc1)C(=O)N[C@@H](C[C@@H]1CCNC1=O)C(=O)C(=O)NCc1ccccc1

>  <class.name>
True

$$$$
>  <mol>
O=C(/C=C/c1ccccc1)N[C@@H](Cc1ccccc1)C(=O)N[C@@H](C[C@@H]1CCNC1=O)C(=O)C(=O)NCc1ccccc1

>  <class.name>
False

$$$$
